Data provenance is the supplement of paper PMC9170038.

test system: K4 kissing-loop RNA reporter; assay: apparent KD of K4 kissing-loop reporter; higher = weaker reporter binding; settings: Eterna round: R107; input ligand: theophylline 20 uM;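 further: bound reporter read as fluorescence of individual clusters on recovered sequencing chips by microscopy, with normalized cluster intensities fitted with a binding model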
Decide using apparent KD of K4 kissing-loop reporter: a value greater than or equal to 200 nM is label 1, a smaller one is label 0.

[[record]]
residue_codes = "UCCUUUGUUGCCAGUGAUGUUGGACAGGAAGGAGCGGGCAUAAGCCCAGGUAGGUCGCCUGUCAACUUUCUUAUAGCCCUAAGGU [KL-XArg-A16]"
cat = "label 1"

[[record]]
residue_codes = "UAACGGCAACAAGGAUAUCCCAGUGAUGUUGGGAGAUAUUGACUAAGGAGACAUGAUAGGCAUAAUGGAGAAGGUGUGUUGGGAG [theeternabot_exclusion_KL_FMN_B_19]"
cat = "label 0"

[[record]]
residue_codes = "GGAUAGGAUAGAGGAUAUGGCUUACACAGAAAUAACUUGUUGUGUUUAUCCAUAGGGAGUGAUGUUCCAGAAGGCUGUCCUAUCG [MatMod 19 - Jieux - Exclusion - FMN B]"
cat = "label 1"

[[record]]
residue_codes = "CGGAUGUAGUGAUGUUAUAUUAGAUGUAGACGAGGACCGGUACGGCCGCCACUCGUGACGGCUGCUAGCGCGUUGCGAGGUUUGC [ExTryptoA.Cn]"
cat = "label 1"

[[record]]
residue_codes = "GUUCUGAUGGAAACAUCGGAACAUACUGAUACCAGUAUCGAUAGAUACCCUUGGCAGCAGAAUCAGUAAUAACGAGUGAUGUUCG [Ex Theophylline A K4 2]"
cat = "label 1"

[[record]]
residue_codes = "GUGCAGUGAUGUUGCACGAGGAAAGACGAUACCAGCCGUAAAUAUGGCCCUUGGCAGCGUGGGCUAGCACAAAAUGUGCUAGUCU [Zareatza]"
cat = "label 0"

[[record]]
residue_codes = "CCAUCGCUAUUCGAUACCAGUCAUUUUUUAUUUUAUUUUUUUUUUGGAGUGAUGUUCCAAGACCCUUGGCAGCGAAUAGUGAUGG [whbob_SS_Theo_B_th78]"
cat = "label 0"

[[record]]
residue_codes = "AAUAUAGUGAUGUUAUAUAAGAAGGAGUUACGAGGACCGGUACGGCCGCCACUCGAAACGAGUGAAGAAGGAGGAAGGAGGAGGA [SSTRyptA.A]"
cat = "label 1"

[[record]]
residue_codes = "ACAGUCGGCUGUGAUACCAGUCGUAUUACAACAUGUUGCAGUGAUGUUGCGAGAUAGGAUGACCCUUGGCAGCACUCAGUACGAC [Same State Theophylline B GF10]"
cat = "label 1"

[[record]]
residue_codes = "GCGCAUGUUAAAGGAUAUAGCAGGUGAUACAAGAAAGUGAGUGAUGUUUAUGUAGAUGAUGAUAUGUUAGAAGGUUAACAAACGC [abcdefghijklmno]"
cat = "label 1"

[[record]]
residue_codes = "GUAUACAUAGAUCACCUUGUAGUGAUGUUGCGAGGACCGGUACGGCCGCCACUCGAAGUACGAAAGUACAAAGAUCUAUGUAUAC [Exclusion Trypto A - 1]"
cat = "label 0"

